- target system: cereblon (CRBN) (Homo sapiens, UniProt Q96SW2)
- test details: In vitro CRBN binding assay (AlphaScreen, competitive inhibition of the PROTAC assay)
- particulars: Table 1; AlphaScreen, PROTAC Optimization Kit for BET Bromodomain-Cereblon Binding; read-out: Alpha IC50
IC50 listing for selected compounds.
metric name: IC50 (nM)

>  <compound>
O=C1CCC(c2cccc(NS(=O)(=O)c3cccc(NC(=O)c4cccc(Cl)c4)c3)c2)C(=O)N1 (centres unmarked) [AEV40136]

>  <metric name>
IC50

>  <cmp>
=

>  <observed>
790

$$$$
>  <compound>
NCc1cccc(C2CCC(=O)NC2=O)c1 (centres unmarked) [AEV40132]

>  <metric name>
IC50

>  <cmp>
>

>  <observed>
10000

$$$$
>  <compound>
Cc1ccc(CNc2cccc(C3CCC(=O)NC3=O)c2)cc1F (centres unmarked) [AEV40095]

>  <metric name>
IC50

>  <cmp>
=

>  <observed>
1580

$$$$
>  <compound>
O=C1CCC(c2cccc(NS(=O)(=O)c3ccccc3C(F)(F)F)c2)C(=O)N1 (centres unmarked) [AEV40070]

>  <metric name>
IC50

>  <cmp>
=

>  <observed>
1050

$$$$
>  <compound>
O=C1CCC(c2cccc(Nc3cccc(CCC(=O)NC4CC5(C4)CC(C(=O)O)C5)c3)c2)C(=O)N1 (centres unmarked) [AEV40211]

>  <metric name>
IC50

>  <cmp>
>

>  <observed>
100000

$$$$
>  <compound>
O=C1CCC(c2cccc(NS(=O)(=O)c3ccc(Cl)cc3Cl)c2)C(=O)N1 (centres unmarked) [AEV40054]

>  <metric name>
IC50

>  <cmp>
=

>  <observed>
200

$$$$
>  <compound>
O=C1CCC(c2ccc3c(c2)CNC3=O)C(=O)N1 (centres unmarked) [AEV40040]

>  <metric name>
IC50

>  <cmp>
=

>  <observed>
1390

$$$$
>  <compound>
O=C1CCC(c2cccc(NC(=O)c3ccc4ccccc4n3)c2)C(=O)N1 (centres unmarked) [AEV40187]

>  <metric name>
IC50

>  <cmp>
=

>  <observed>
830

$$$$
>  <compound>
O=C1CCC(c2cccc(NC(=O)Nc3ccc(C(F)(F)F)cc3)c2)C(=O)N1 (centres unmarked) [AEV40133]

>  <metric name>
IC50

>  <cmp>
=

>  <observed>
1260

$$$$
>  <compound>
O=C1CCC(c2cccc(NC(=O)c3n[nH]cc3Cl)c2)C(=O)N1 (centres unmarked) [AEV40183]

>  <metric name>
IC50

>  <cmp>
=

>  <observed>
1050

$$$$
>  <compound>
Cc1ccc(C2CCC(=O)NC2=O)cc1 (centres unmarked) [AEV40039]

>  <metric name>
IC50

>  <cmp>
=

>  <observed>
870

$$$$
>  <compound>
CC1(C(=O)Nc2cccc(S(=O)(=O)Nc3cccc(C4CCC(=O)NC4=O)c3)c2)CC1 (centres unmarked) [AEV40227]

>  <metric name>
IC50

>  <cmp>
=

>  <observed>
980

$$$$
>  <compound>
O=C1CCC(c2cccc(NC(=O)c3ccc(F)cc3F)c2)C(=O)N1 (centres unmarked) [AEV40164]

>  <metric name>
IC50

>  <cmp>
=

>  <observed>
1670

$$$$
>  <compound>
O=C1CCC(c2cccc(NC(=O)c3ccsc3Cl)c2)C(=O)N1 (centres unmarked) [AEV40189]

>  <metric name>
IC50

>  <cmp>
=

>  <observed>
1630

$$$$
>  <compound>
O=C1CCC(c2cccc(NCc3ccccc3)c2)C(=O)N1 (centres unmarked) [AEV40087]

>  <metric name>
IC50

>  <cmp>
=

>  <observed>
1150

$$$$
>  <compound>
O=C1CCC(c2cccc(NS(=O)(=O)c3cccc(NC(=O)c4c(F)cccc4F)c3)c2)C(=O)N1 (centres unmarked) [AEV40156]

>  <metric name>
IC50

>  <cmp>
=

>  <observed>
1250

$$$$
>  <compound>
O=C1CCC(c2cccc(NS(=O)(=O)c3cccc(NC(=O)c4ccc(CCCCCCCl)cc4)c3)c2)C(=O)N1 (centres unmarked) [AEV41048]

>  <metric name>
IC50

>  <cmp>
=

>  <observed>
2590

$$$$
>  <compound>
CCCCCc1ccc(C(=O)Nc2cccc(S(=O)(=O)Nc3cccc(C4CCC(=O)NC4=O)c3)c2)cc1 (centres unmarked) [AEV41013]

>  <metric name>
IC50

>  <cmp>
=

>  <observed>
360

$$$$
>  <compound>
O=C1CCC(c2cccc(NS(=O)(=O)c3cccc(NC(=O)c4c(Cl)ccc(Cl)c4F)c3)c2)C(=O)N1 (centres unmarked) [AEV40159]

>  <metric name>
IC50

>  <cmp>
=

>  <observed>
1490

$$$$
>  <compound>
O=C1CCC(c2cccc(NC(=O)c3ccc(Cl)cc3Cl)c2)C(=O)N1 (centres unmarked) [AEV40076]

>  <metric name>
IC50

>  <cmp>
=

>  <observed>
1350

$$$$

----------
- target system: cereblon (CRBN) (Homo sapiens)
- test details: In vitro CRBN binding assay (AlphaScreen, competitive inhibition of the PROTAC assay)
- particulars: Table 1; AlphaScreen, PROTAC Optimization Kit for BET Bromodomain-Cereblon Binding; read-out: Alpha IC50
pIC50: −log10 of the molar value.
Reported pIC50 values are given for each entry in this list.
metric name: pIC50

>  <molecule>
O=C1CCC(c2cccc(NCc3ccc(C(F)(F)F)cc3)c2)C(=O)N1 (centres unmarked)

>  <metric name>
pIC50

>  <observed>
5.76

$$$$
>  <molecule>
O=C1CCC(c2cccc(NC(=O)c3cc(Br)ccc3Cl)c2)C(=O)N1 (centres unmarked)

>  <metric name>
pIC50

>  <observed>
5.86

$$$$
>  <molecule>
O=C1CCC(c2cccc(NS(=O)(=O)c3cccc(NC(=O)c4cccc(Br)c4)c3)c2)C(=O)N1 (centres unmarked)

>  <metric name>
pIC50

>  <observed>
6.14

$$$$
>  <molecule>
CCc1ccc(C(=O)Nc2cccc(S(=O)(=O)Nc3cccc(C4CCC(=O)NC4=O)c3)c2)cc1 (centres unmarked)

>  <metric name>
pIC50

>  <observed>
6.38

$$$$
>  <molecule>
O=C1CCC(c2ccc3c(c2)CN(S(=O)(=O)c2ccc(Cl)cc2)C3=O)C(=O)N1 (centres unmarked)

>  <metric name>
pIC50

>  <observed>
4.26

$$$$

----------
Parameter pIC50: see the listing below.
- target system: cereblon (CRBN) (Homo sapiens)
- test details: In vitro CRBN binding assay (AlphaScreen, competitive inhibition of the PROTAC assay)
- particulars: Table 1; AlphaScreen, PROTAC Optimization Kit for BET Bromodomain-Cereblon Binding; read-out: Alpha IC50
pIC50: −log10 of the molar value.

>  <compound>
Cc1ccc(CNc2cccc(C3CCC(=O)NC3=O)c2)s1 (stereo not shown) [AEV40092]

>  <pIC50>
6.01

$$$$
>  <compound>
O=C1CCC(c2cccc(NCc3ccc(F)cc3O)c2)C(=O)N1 (stereo not shown) [AEV40097]

>  <pIC50>
6.00

$$$$
>  <compound>
O=C1CCC(c2cccc(NS(=O)(=O)c3cccc(NC(=O)c4ccc(Cl)c(Cl)c4)c3)c2)C(=O)N1 (stereo not shown) [AEV40142]

>  <pIC50>
6.01

$$$$
>  <compound>
Cn1cc(Cl)c(C(=O)Nc2cccc(C3CCC(=O)NC3=O)c2)n1 (stereo not shown) [AEV40188]

>  <pIC50>
6.00

$$$$
